TEST_PROTOCOL: NCI Yeast Anticancer Drug Screen. Data for the sgs1 mgt1 strain (AID 161)
CONDITION: S. cerevisiae sgs1 mgt1 strain, at 50.0 µM, hits give high values
Compounds without any hit were thinned out: in the full panel of roughly 79,000, 15% have a hit.
Where growth inhibition equals or exceeds 10%, the correct label is Fulfilled; where it does not, the label is Not fulfilled.

Check out these entries, answers already filled in.
Query: Does the reported growth inhibition for "CCCCCCCCCCCC(=O)OCc1ccccc1" fall at or above the 10% mark?
Response: Not fulfilled

Query: Does the reported growth inhibition for "O=C(O)c1cc(Cl)cc([N+](=O)[O-])c1" fall at or above the 10% mark?
Response: Fulfilled

Query: Does the reported growth inhibition for CCC1(c2ccccc2)SCC(=O)NC1=O (stereo not drawn) fall at or above the 10% mark?
Response: Fulfilled

Query: Does the reported growth inhibition for "C[C@]12CCC[C@H](O)[C@H]1O2" fall at or above the 10% mark?
Response: Not fulfilled

Query: Does the reported growth inhibition for "COC(=O)CCC(=O)Nc1ccccc1C(F)(F)F" fall at or above the 10% mark?
Response: Not fulfilled

Others:
Query: Does the reported growth inhibition for "O=C(Cl)c1cc(Cl)cc(Cl)c1Br" fall at or above the 10% mark?
Response: Fulfilled

Query: Does the reported growth inhibition for "O=C1NCC/C1=C\c1ccccc1" fall at or above the 10% mark?
Response: Not fulfilled

Query: Does the reported growth inhibition for "O=C(O)c1sccc1Cc1ccsc1" fall at or above the 10% mark?
Response: Not fulfilled
